Target desc: Chromobox protein homolog 1 (Homo sapiens)
Assay details: qHTS Validation Assay for Inhibitors of HP1-beta Chromodomain Interactions with Methylated Histone Tails (AID 488953); further: nearly all actives have a fitted effect of over 50% in size
Condition label: HP1-beta chromodomain / methylated histone peptide binding assay; series mostly up to 114 µM
Results filed as inconclusive are left out. Active and inactive are the calls of the source. The call rests on the fitted dose curve; in most records, active means well fitted inhibition curve with a large enough effect; inconclusive means small, poorly fitted or top-dose-only effect; inactive means no such curve, though single readings can be large or run the other way. Residues, ends and D or L forms follow the SMILES beside them. *: point of attachment. Cbz = O=C(OCc1ccccc1)*
Field 'call' accepts active, inactive

# fetch the recorded call for CN1C2CCC1CC(OC(c1ccccc1)c1ccccc1)C2 (stereo unspecified) here
inactive

# fetch the recorded call for CNCCNS(=O)(=O)c1cccc2cnccc12 here
inactive

# fetch the recorded call for CCCCCCCCCCCCCCCCCCOC[C@H](COP(=O)([O-])OCC[N+](C)(C)C)OC here
inactive

# fetch the recorded call for Nc1ccc(N2C(=O)c3ccccc3C2=O)c(Cl)c1 here
inactive

# fetch the recorded call for COc1ccc2c(c1)c(CC(=O)O)c(C)n2Cc1ccc(Cl)cc1 here
active

# fetch the recorded call for NC1C=CC=C(C(=O)O)C1 (stereo unspecified) here
inactive

# fetch the recorded call for CC(C)NC[C@H](O)COc1ccc(CC(N)=O)cc1 here
inactive

# fetch the recorded call for CC(C)[C@H](NC(=O)OCc1ccccc1)C(=O)N[C@H](C=O)Cc1ccccc1 (Cbz-Val-Phe-aldehyde) here
inactive

# fetch the recorded call for CC(=O)[C@H]1CCC2C3CC=C4C[C@@H](OS(=O)(=O)O)CC[C@]4(C)C3CC[C@@]21C (stereo partly specified) here
inactive

# fetch the recorded call for NCC(O)C1CCCCCCC1 (stereo unspecified) here
inactive

# fetch the recorded call for O=[N+]([O-])c1cccc2c(Br)[nH]nc12 here
inactive

# fetch the recorded call for O=c1[nH]c2ccccc2c2ccccc12 here
inactive

# fetch the recorded call for O=C(N[C@@H](Cc1ccccc1)C(=O)CCl)OCc1ccccc1 here
inactive

# fetch the recorded call for CC(C)Cn1c(=O)n(C)c(=O)c2[nH]cnc21 here
inactive

# fetch the recorded call for NOCC(=O)O here
inactive

# fetch the recorded call for Cn1c(=O)c2c(nc(/C=C/c3cccc(Cl)c3)n2C)n(C)c1=O here
inactive

# fetch the recorded call for OCC1NCC(O)C(O)C1O (stereo unspecified) here
inactive

# fetch the recorded call for N[C@@H](Cc1ccc(O)c(I)c1)C(=O)O here
inactive

# fetch the recorded call for O=C(O)C1=CC(=C(c2ccc(O)c(C(=O)O)c2)c2ccc(O)c(C(=O)O)c2)C=CC1=O here
active

# fetch the recorded call for CN1CC(O)C(O)C(O)C1CO (stereo unspecified) here
inactive

# fetch the recorded call for C=C(C)C1CC=C(C(=O)O)CC1 (stereo unspecified) here
inactive

# fetch the recorded call for CCC(=O)N1CCN(C(=O)c2ccccc2)CC1 here
inactive

# fetch the recorded call for N#C/C(=C\c1ccc(O)c(O)c1)C(=O)NCCc1ccccc1 here
active

# fetch the recorded call for O=C(O)Cc1c[nH]c2ccc(O)cc12 here
inactive

# fetch the recorded call for N[C@@H](Cc1c[nH]c2ccccc12)C(=O)O here
inactive

# fetch the recorded call for Cn1c(=O)c2[nH]c(C3CCCC3)nc2n(C)c1=O here
inactive
